This section presents molecules with their documented Activity values.
Target: Glutamate NMDA receptor; Grin1/Grin2a (Rattus norvegicus) (UniProt P35439+Q00959)
Test: Potentiation of rat recombinant GluN1/GluN2A expressed in Xenopus laevis oocytes assessed as increase in glutamate/glycine-induced current response at 30 uM by two-electrode voltage clamp technique relative to control
Format: cell-based
Give the value in % but do not write % after it.

Completed entries (count: 5):
COC(=O)c1ccc(C2C(C(C)=O)=C(O)C(=O)N2CCc2c[nH]c3ccccc23)cc1F (stereo not drawn) | 99
COC(=O)c1ccc(C2C(C(=O)c3cccnc3)=C(O)C(=O)N2CCc2c[nH]c3cc(C)ccc23)cc1 (stereo not drawn) | 103
COC(=O)c1ccc(C2C(C(=O)c3cccnc3)=C(O)C(=O)N2CCc2c[nH]c3c(F)cccc23)cc1 (stereo not drawn) | 105
COC(=O)c1cccc(C2C(C(C)=O)=C(O)C(=O)N2CCc2c[nH]c3ccccc23)c1 (stereo not drawn) | 99
COC(=O)c1ccc(C2C(C(=O)c3cccc(Cl)c3)=C(O)C(=O)N2CCc2c[nH]c3ccccc23)cc1 (stereo not drawn) | 107

Q: Entry COC(=O)c1ccc(C2C(C(=O)c3cccc(F)c3)=C(O)C(=O)N2CCc2c[nH]c3ccccc23)cc1 (stereo not drawn) : reported Activity = ?
Result: 98

Q: Next molecule: CC(=O)C1=C(O)C(=O)N(CCc2c[nH]c3ccccc23)C1c1ccc(C(=O)O)cc1 (stereo not drawn)
Result: 100

Q: Next molecule: COC(=O)c1ccc(C2C(C(C)=O)=C(O)C(=O)N2CCc2c[nH]c3ccccc23)cc1OC (stereo not drawn)
Result: 98

----------
This section presents compounds with their documented Activity values.
Target: Ionotropic glutamate receptor NMDA 1/2D (Rattus norvegicus) (UniProt P35439+Q62645)
Assay: Potentiation of rat recombinant GluN1/GluN2D expressed in Xenopus laevis oocytes assessed as increase in glutamate/glycine-induced current response at 30 uM by two-electrode voltage clamp technique relative to control
Assay type: cell-based
Give the value in % but do not write % after it.

Completed entries (count: 6):
COC(=O)c1ccc(C2C(C(=O)C(C)(C)C)=C(O)C(=O)N2CCc2c[nH]c3ccccc23)cc1 (stereo not drawn) | 79
COC(=O)c1ccc(C2C(C(=O)c3ccncc3)=C(O)C(=O)N2CCn2cnc3ccccc32)cc1 (stereo not drawn) | 89
COC(=O)c1ccc(C2C(C(C)=O)=C(O)C(=O)N2CCc2c[nH]c3ccccc23)c(F)c1 (stereo not drawn) | 91
COC(=O)c1ccc(C2C(C(=O)c3ccccn3)=C(O)C(=O)N2CCc2c[nH]c3ccccc23)cc1 (stereo not drawn) | 75
COC(=O)c1ccc(C2C(C(=O)c3ccncc3)=C(O)C(=O)N2CCc2c[nH]cn2)cc1 (stereo not drawn) | 94
COC(=O)c1ccc(C2C(C(=O)c3cccnc3)=C(O)C(=O)N2CCc2coc3ccccc23)cc1 (stereo not drawn) | 80

Consider now this further compound.
Q: Entry COC(=O)c1ccc(C2C(C(C)=O)=C(O)C(=O)N2CCc2c[nH]c3c(C)cccc23)cc1 (stereo not drawn) : reported Activity = ?
Result: 92

----------
Molecular target: Glutamate NMDA receptor; Grin1/Grin2c (Rattus norvegicus) (UniProt P35439+Q00961)
Assay: Potentiation of rat recombinant GluN1/GluN2C expressed in Xenopus laevis oocytes assessed as increase in glutamate/glycine-induced current response at 30 uM by two-electrode voltage clamp technique relative to control
Format: cell-based
measured parameter: max activation (%)
Give the value in % but do not write % after it.

COC(=O)c1ccc(C2C(C(C)=O)=C(O)C(=O)N2CCc2c(C)[nH]c3ccccc23)cc1 (stereo in doubt; 106a) | 259

Q: Entry COC(=O)c1ccc(C2C(C(C)=O)=C(O)C(=O)N2CCc2c[nH]c3ccccc23)c(F)c1 (stereo unspecified) : reported max activation = ?
Result: 155

Q: Next compound: CCCC(=O)OC1=C(C(C)=O)C(c2ccc(C(=O)OC)cc2)N(CCc2c(C)[nH]c3ccccc23)C1=O (stereo unspecified)
Result: 184

Q: Next compound: COC(=O)c1ccc(C2C(C(C)=O)=C(O)C(=O)N2CCc2c[nH]c3ccccc23)c(C)c1 (stereo unspecified)
Result: 165

Q: Next compound: CCC(=O)C1=C(O)C(=O)N(CCc2c[nH]c3ccccc23)C1c1ccc(C(=O)OC)cc1 (stereo unspecified)
Result: 204

Q: Next compound: NS(=O)(=O)c1ccc(C2C(C(=O)c3cccnc3)=C(O)C(=O)N2CCc2c[nH]c3ccccc23)cc1 (stereo unspecified)
Result: 130

----------
Biological target: Ionotropic glutamate receptor NMDA 1/2D (Rattus norvegicus) (UniProt P35439+Q62645)
Assay: Potentiation of rat recombinant GluN1/GluN2D expressed in Xenopus laevis oocytes assessed as increase in glutamate/glycine-induced current response at 30 uM by two-electrode voltage clamp technique relative to control
Assay type: cell-based
This section presents compounds with their documented Activity values.
Param answer (str): number followed by unit.

Completed entries (count: 5):
COC(=O)c1ccc(C2C(C(C)=O)=C(O)C(=O)N2CCc2ccccc2)cc1 (stereo not drawn) | 99%
COC(=O)c1ccc(C2C(C(=O)c3ccncc3)=C(O)C(=O)N2CCc2c[nH]c3ccccc23)cc1 (stereo not drawn) | 84%
CCOC(=O)c1ccc(C2C(C(C)=O)=C(O)C(=O)N2CCc2c[nH]c3ccccc23)cc1 (stereo not drawn) | 91%
COC(=O)c1ccc(C2C(C(=O)c3cccnc3)=C(O)C(=O)N2CCc2cn(C)c3ccccc23)cc1 (stereo not drawn) | 85%
COC(=O)c1ccc(C2C(C(=O)c3cccnc3)=C(O)C(=O)N2CCc2c[nH]c3c(F)cccc23)cc1 (stereo not drawn) | 86%

Q: Param readout= Activity; system= Ionotropic glutamate receptor NMDA 1/2D (Rattus norvegicus) (UniProt P35439+Q62645); entry= NC(=O)c1ccc(C2C(C(=O)c3cccnc3)=C(O)C(=O)N2CCc2c[nH]c3ccccc23)cc1 (stereo not drawn) ; returns value.
Result: 91%

Q: Next compound: COC(=O)c1ccc(C2C(C(=O)c3cccnc3)=C(O)C(=O)N2CCc2c[nH]c3cc(OC)ccc23)cc1 (stereo not drawn)
Result: 85%

Q: Next compound: COC(=O)c1ccc(C2C(C(=O)c3cccc(F)c3)=C(O)C(=O)N2CCc2c[nH]c3ccccc23)cc1 (stereo not drawn)
Result: 78%

Q: Next compound: COC(=O)c1ccc(C2C(C(C)=O)=C(O)C(=O)N2CCc2c[nH]c3ccccc23)cc1F (stereo not drawn)
Result: 93%

Q: Next compound: CCOC(=O)c1ccc(C2C(C(=O)c3ccncc3)=C(O)C(=O)N2CCc2c[nH]c3ccccc23)cc1 (stereo not drawn)
Result: 86%

Q: Next compound: C=CC(=O)OC1=C(C(C)=O)C(c2ccc(C(=O)OC)cc2)N(CCc2c(C)[nH]c3ccccc23)C1=O (stereo not drawn)
Result: 100%

Q: Next compound: COC(=O)c1ccc(C2C(C(=O)c3cccnc3)=C(O)C(=O)N2CCc2c[nH]c3cc(Cl)ccc23)cc1 (stereo not drawn)
Result: 86%

Q: Next compound: COC(=O)c1ccccc1C1C(C(C)=O)=C(O)C(=O)N1CCc1c[nH]c2ccccc12 (stereo not drawn)
Result: 93%

Q: Next compound: COC(=O)c1ccc(C2C(C(C)=O)=C(O)C(=O)N2CCc2c[nH]c3ccccc23)c(C)c1 (stereo not drawn)
Result: 85%

Q: Next compound: COC(=O)c1ccc(C2C(C(=O)c3cccnc3)=C(O)C(=O)N2CCc2c[nH]c3ccccc23)cc1 (stereo not drawn)
Result: 78%

----------
Target: Ionotropic glutamate receptor NMDA 1/2D (Rattus norvegicus) (UniProt P35439+Q62645)
Experiment: Potentiation of rat recombinant GluN1/GluN2D expressed in Xenopus laevis oocytes assessed as increase in glutamate/glycine-induced current response at 30 uM by two-electrode voltage clamp technique relative to control
Type: cell-based
Categories are assigned from the measured Activity using these intervals: bucket A (below 80%), bucket B (80% to below 90%), bucket C (90% or more)

Solved entries:
CC(=O)C1=C(O)C(=O)N(CCc2c[nH]c3ccccc23)C1c1ccc(C(=O)OC(C)(C)C)cc1 (configuration not stated) | bucket A
COC(=O)c1ccc(C2C(C(=O)c3cccc(C)c3)=C(O)C(=O)N2CCc2c[nH]c3ccccc23)cc1 (configuration not stated) | bucket B
CCCC(=O)OC1=C(C(C)=O)C(c2ccc(C(=O)OC)cc2)N(CCc2c(C)[nH]c3ccccc23)C1=O (configuration not stated) | bucket C
CCOC(=O)c1ccc(C2C(C(C)=O)=C(O)C(=O)N2CCc2c(C)[nH]c3ccccc23)cc1 (configuration not stated) | bucket B
COC(=O)c1ccc(C2C(C(C)=O)=C(O)C(=O)N2CCc2c[nH]c3ccccc23)cc1C (configuration not stated) | bucket B

Q: Consider N#Cc1ccc(C2C(C(=O)c3cccnc3)=C(O)C(=O)N2CCc2c[nH]c3ccccc23)cc1 (configuration not stated) . To which Activity class does it belong?
Result: bucket C

Q: Next molecule: COC(=O)c1ccc(C2C(C(=O)c3ccncc3)=C(O)C(=O)N2CCc2cccc3ccccc23)cc1 (configuration not stated)
Result: bucket A

Q: Next molecule: COC(=O)c1ccc(C2C(C(C)=O)=C(O)C(=O)N2CCc2c(C)[nH]c3ccccc23)cc1 (racemic)
Result: bucket C
